Assay: Primary qHTS for inhibitors of nuclear receptor binding SET domain protein 2 (NSD2) in an isogenic RCH-ACV NSD2 p.E1099K mutant (9B) (AID 1645876); also: nearly all actives have a fitted effect of over 70% in size
Details: RCH-ACV (leukaemia line) NSD2 E1099K (9B) viability, CellTiter-Glo, 72 h; series mostly up to 44.9 µM
Results filed as inconclusive are left out. The source made the active and inactive calls. Calls follow the shape of the dose curve; as a rule, active = well fitted inhibition curve with a large enough effect; inconclusive = small, poorly fitted or top-dose-only effect; inactive = flat fitted curve, though single readings scatter. Where a SMILES comes first, the peptide text is derived from it. The star is where a group is joined. AFC = O=c1cc(C(F)(F)F)c2ccc(N*)cc2o1
Use one of these outcomes when replying: active, inactive

Record excerpt, results attached:
>>> cat("CC(=O)N[C@@H](Cc1c[nH]c2ccccc12)C(=O)N[C@@H](CCC(=O)O)C(=O)N[C@@H](Cc1cnc[nH]1)C(=O)N[C@@H](CC(=O)O)C(=O)Nc1ccc2c(C(F)(F)F)cc(=O)oc2c1 (Ac-WEHD-{AFC})")
"inactive"
>>> cat("COc1ccc(-c2c(-c3cc(C(=O)O)ccn3)ncn2C)cc1")
"inactive"
>>> cat("CC1CC(=O)C2=C(CCC3(O)C(O)c4c(O)cccc4C(=O)C23O)C1 (stereo unspecified)")
"inactive"

Hello, I am checking results. What call was entered for CCNC(=O)C1OC(n2cnc3c(N)nc(NCCc4ccc(CCC(=O)O)cc4)nc32)C(O)C1O (stereo unspecified) ?
inactive

Entry C=C1CCC2C(C)(C(=O)O)CCCC2(C)C1CC/C(=C\CO)CO (stereo unspecified) : call = ?
inactive

What did this assay record as the result for CC1(C)CCC[C@@]2(C)C1[C@H](OC(=O)/C=C/C=C/C(=O)O)C=C1COC(=O)[C@@]12O (stereo partly specified) ?
inactive

Field: outcome | Entry: C=CC(C)(CC/C=C(\C)C(=O)OC)OC1OC(COC(=O)CC(C)(O)CC(=O)O)C(OC2OC(CO)C(O)C(O)C2O)C(O)C1O (stereo unspecified)
inactive

Lab log entry: `Cn1cc(-c2ccc3nnc(Sc4ccc5nn(C)cc5c4)n3n2)cn1` — outcome as called in the assay?
inactive

What call does the record list for C=C(C(=O)O)C1CCC2(C)CCC(O)C(C)(O)C2C1 (stereo unspecified) ?
inactive

Fill in: this test's call for COc1c2cc(c(O)c1OC)-c1cc(ccc1O)CCC(O)CCCC2 (stereo unspecified) is ___
inactive

In this assay, the call recorded for `c1ccc(-c2csc(N3CCOCC3)n2)cc1` was what?
inactive

====

Test system: PA-1
Assay: Primary qHTS to identify gynecologic anti-cancer compounds using libraries of approved drugs and bioactive compounds (AID 1345084); also: % is scaled to controls: 0 for no effect and ±100 for the full control effect; nearly all actives have a fitted effect of over 55% in size
Details: Gynecologic cancer cell panel viability, ATPlite luminescence, 48 h; series mostly up to 57.5 µM
Inconclusive results are not listed. Activity calls are given as the source filed them. The call rests on the fitted dose curve; in most records, active means well fitted cell-killing curve with a large enough effect; inconclusive means small, poorly fitted or top-dose-only effect, or effect the other way; inactive means flat fitted curve, though single readings scatter.
reportedProperty: activity change, negative = cytotoxicity

Below, each entry is followed by its recorded activity change, negative = cytotoxicity result.
>>> assayresult("C[C@@H]1O[C@@H](O[C@@H]2[C@@H](O)[C@H](O[C@H]3CC[C@@]4(C)C(CC[C@]5(C)C4CC=C4[C@@H]6CC(C)(C)CC[C@]6(C(=O)O[C@@H]6O[C@H](CO)[C@@H](O)[C@H](O)[C@H]6O)CC[C@]45C)C3(C)C)O[C@H](C(=O)O)[C@H]2O)[C@H](O)[C@H](O)[C@H]1O (stereo partly drawn)")
"2.04% [at 11.6 µM] (inactive)"
>>> assayresult("CC(=O)O[C@@H]1[C@H](O[C@@H]2O[C@@H](CO)[C@H](O)[C@H]2O)[C@@H](O[C@@H]2O[C@@H](C)[C@H](O[C@@H]3OC[C@@H](O)[C@H](O)[C@H]3O)[C@@H](O)[C@H]2O)[C@H](OC(=O)[C@]23CCC(C)(C)C[C@H]2C2=CCC4[C@@]5(C)CC[C@H](O[C@@H]6O[C@H](C(=O)O)[C@@H](O)[C@H](O)[C@H]6O[C@@H]6O[C@H](CO)[C@H](O)[C@H](O)[C@H]6O)[C@@](C)(C=O)C5CC[C@@]4(C)[C@]2(C)CC3)O[C@@H]1C (stereo partly drawn)")
"11.1% [at 6.55 µM] (inactive)"

Proceed to the following item.
activity change, negative = cytotoxicity in this record for CC1OC(O[C@H]2CC[C@@]3(C)C(CC[C@]4(C)C3CC=C3C5CC(C)(C)CC[C@]5(C(=O)OC5OC(CO)C(OC6OC(COC7OCC(O)C(O)C7O)C(O)C(O)C6O)C(O)C5O)CC[C@]34C)C2(C)C)C(O)C(O)C1OC1OCC(OC2OCC(O)C(O)C2O)C(O)C1O (stereo partly drawn) : -4.41% [at 6.55 µM] (inactive)
